# study target: T1, rat calcitonin receptor (rat, UniProt P32214 25-516)
# T1 construct: whole, on cells; Used as membranes prepared from the transfected cells (Assay VIII); also called rCTR; rat calcitonin (a) receptor
# T1 sequence (looked up): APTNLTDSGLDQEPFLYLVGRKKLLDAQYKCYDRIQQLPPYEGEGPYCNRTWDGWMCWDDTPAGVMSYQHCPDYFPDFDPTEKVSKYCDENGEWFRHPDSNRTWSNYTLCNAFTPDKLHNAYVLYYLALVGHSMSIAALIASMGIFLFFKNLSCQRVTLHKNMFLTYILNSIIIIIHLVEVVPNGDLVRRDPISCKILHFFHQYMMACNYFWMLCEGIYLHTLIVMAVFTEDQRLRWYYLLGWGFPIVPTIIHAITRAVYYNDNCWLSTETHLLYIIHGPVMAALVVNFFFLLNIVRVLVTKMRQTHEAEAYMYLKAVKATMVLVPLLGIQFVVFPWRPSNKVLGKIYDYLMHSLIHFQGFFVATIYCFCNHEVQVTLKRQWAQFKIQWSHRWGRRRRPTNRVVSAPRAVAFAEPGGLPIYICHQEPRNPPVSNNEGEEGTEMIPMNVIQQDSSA
# test details: ratio of IC50 on rat calcitonin receptor (Assay VIII) to IC50 on rat amylin receptor (Assay VI)
Numbered stars: 1 amine (or outer) side, 2 acyl side, 3 side chain; on linkers, the order of the positions; unused ones are H or OH. Bridge positions count the residues as written; N and C are the ends. Side chains are listed from the residue outwards. Ends that are not written are not given here. * marks the point of attachment. C20 diacid = O=C(O)CCCCCCCCCCCCCCCCCCC(=O)*; γGlu = O=C(O)[C@H](CCC(=O)[*:2])N[*:1]
Label T when Ratio rCT/rAmylin binding < 70; otherwise F.

Task: Take the binder K([γGlu-C20 diacid])CNTATCATQRLAEFLRHSSPNFGAIPSSTNVGPHTY-NH2 (disulfide 2-7, not restated for each compound) and say whether its Ratio rCT/rAmylin binding is less than 70.
Result: T

Task: Criterion: Ratio rCT/rAmylin binding strictly below 70. Is it met by K([γGlu-γGlu-C20 diacid])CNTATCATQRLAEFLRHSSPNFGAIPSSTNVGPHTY-NH2 (disulfide 2-7 (inferred), not restated for each compound) ?
Result: F

Task: Please state whether Ratio rCT/rAmylin binding is below 70 for K([γGlu-γGlu-C20 diacid])CNTATCATQRLAEFLRHSSPNFGAILSSTPVGPETY-NH2 (disulfide 2-7 (inferred), not restated for each compound)
Result: F

Task: Please let me know if {C20 diacid-γGlu}-GRCNTATCATQRLAAFLRHSSPNFGAIPSSTNVGPNTY-NH2 (disulfide 3-8, not restated for each compound) shows Ratio rCT/rAmylin binding below 70.
Result: F

Task: Confirm or reject: Ratio rCT/rAmylin binding of K([γGlu-γGlu-C20 diacid])CNTATCATQRLADFLRHSSPNFGAIPSSTNVGPRTY-NH2 (disulfide 2-7, not restated for each compound; also called compound 130) lies strictly below 70
Result: F

Now consider the entry below.
Task: In the record for K([γGlu-γGlu-C20 diacid])CNTATCATQRLADFLRHSSPNFGAIPSSTNVGPETY-NH2 (disulfide 2-7, not restated for each compound) , is Ratio rCT/rAmylin binding less than 70?
Result: F
